The measurements presented in this section are drawn from patent EP4745135A1.

- Tested on: Human acute myeloid leukemia cell line: Kasumi-1
- protocolNotes: Tumor cell proliferation inhibition (CellTiter-Meiluncell luminescent cell viability assay)
- conditions: Kasumi 1, 96 h, read-out: Inhibition Rate at 10 nM (%)
endpoint: inhibition at 0.01 µM

In the examples that follow, each entry is paired with its recorded inhibition at 0.01 µM.
> print(dat)
                                   compound   obsvalue
1  O=C1CCC(N2Cc3cc(CN4CC=C(c5ccoc5)CC4)ccc3C2=S)C(=O)N1 (centres unmarked) [GT-08328]   5 to 10%
2  O=C1CCC(N2Cc3cc(CN4CCC(c5ccsc5)CC4)ccc3C2=S)C(=O)N1 (centres unmarked) [GT-08324]    0 to 5%
3  Cc1cc(C2=CCN(Cc3ccc4c(c3)CN(C3CCC(=O)NC3=O)C4=S)CC2)cs1 (centres unmarked) [GT-08327]  30 to 40%
4  O=C1CCC(N2Cc3cc(CN4CCN(c5cccc(F)c5F)CC4)ccc3C2=S)C(=O)N1 (centres unmarked) [GT-08210]  20 to 30%
5  O=C1CCC(N2Cc3cc(CN4CCC(c5cccs5)CC4)ccc3C2=S)C(=O)N1 (centres unmarked) [GT-08329]   5 to 10%

Exercise: What measured inhibition at 0.01 µM goes with O=C1CCC(N2Cc3cc(CN4CCC(N(c5ccccc5)c5ccccn5)CC4)ccc3C2=S)C(=O)N1 (centres unmarked) [GT-07846] ?
Solution: 40 to 50%

Exercise: What measured inhibition at 0.01 µM goes with O=C1CCC(N2Cc3cc(CN4CCN(Cc5ccccc5-c5ccc(Cl)cc5)CC4)ccc3C2=S)C(=O)N1 (centres unmarked) [GT-08166] ?
Solution: 10 to 20%

Exercise: What measured inhibition at 0.01 µM goes with O=C1CCC(N2Cc3c(CN4CCN(c5cccc(F)c5)CC4)cccc3C2=S)C(=O)N1 (centres unmarked) [GT-08263] ?
Solution: 50 to 60%

Exercise: What measured inhibition at 0.01 µM goes with Nc1cccc2c1CN(C1CCC(=O)NC1=O)C2=O (centres unmarked) [lenalidomide, reference compound] ?
Solution: 5 to 10%

Exercise: What measured inhibition at 0.01 µM goes with O=C1CCC(N2Cc3c(CN4CCN(c5cccc(F)c5F)CC4)cccc3C2=S)C(=O)N1 (centres unmarked) [GT-08268] ?
Solution: 50 to 60%

Exercise: What measured inhibition at 0.01 µM goes with O=C1CCC(N2Cc3cc(CN4CCC(c5cccc(F)c5Cl)CC4)ccc3C2=S)C(=O)N1 (centres unmarked) [GT-08330] ?
Solution: 5 to 10%

Exercise: What measured inhibition at 0.01 µM goes with O=C1CCC(N2Cc3cc(CN4CC=C(c5ccsc5)CC4)ccc3C2=S)C(=O)N1 (centres unmarked) [GT-08172] ?
Solution: 20 to 30%

Exercise: What measured inhibition at 0.01 µM goes with O=C1CCC(N2Cc3c(CN4CC=C(c5cccc(F)c5Cl)CC4)cccc3C2=S)C(=O)N1 (centres unmarked) [GT-08301] ?
Solution: 50 to 60%

Exercise: What measured inhibition at 0.01 µM goes with CC1(C)CCC(CN2CC3CCC(C2)N3Cc2cccc3c2CN(C2CCC(=O)NC2=O)C3=S)=C(c2ccc(Cl)cc2)C1 (centres unmarked) [GT-08292] ?
Solution: 60 to 70%
